tested on: dengue virus type 2; experiment: Inhibition of Dengue virus (serotype 2) NS2B-NS3 protease at 50 uM preincubated with protein for 15 mins followed by Abz-Nle-Lys-Arg-Arg-Ser-3-(NO2)Tyr substrate addition measured by continuous fluorometric analysis
Non-standard residues stand in square brackets, D forms with d. Residues, ends and D or L forms follow the SMILES beside them. *: point of attachment. Phe(4-guanidino) = N=C(N)Nc1ccc(C[C@H](N)C(=O)O)cc1; Phe(4-CN) = N#Cc1ccc(C[C@H](N)C(=O)O)cc1; Phg = N[C@H](C(=O)O)c1ccccc1; Bz = O=C(c1ccccc1)*
inhibition: recorded values
Please respond with the number in % and leave the unit unwritten.

Sample answers from the record:
Looking up N=C(N)c1ccc(C[C@H](NC(=O)c2ccccc2)C(=O)N[C@@H](CCCCN)C(=O)N[C@H](C(N)=O)c2ccccc2)cc1 , I see its inhibition listed as 100

Value of measured inhibition for the entry NCCCC[C@H](NC(=O)[C@H](Cc1cccc(CN)c1)NC(=O)c1ccccc1)C(=O)N[C@H](C(N)=O)c1ccccc1 : 82.4

inhibition for N#Cc1ccc(C[C@H](NC(=O)c2ccccc2)C(=O)N[C@@H](CCCCN)C(=O)N[C@H](C(N)=O)c2ccccc2)cc1 (Bz-[Phe(4-CN)]-Lys-[Phg]-NH2) is 22

Please fill in: inhibition reported for N=C(N)Nc1ccc(C[C@H](NC(=O)c2ccccc2)C(=O)N[C@@H](CCCCN)C(=O)N[C@H](C(N)=O)c2ccccc2)cc1 (Bz-[Phe(4-guanidino)]-Lys-[Phg]-NH2) = 99.9

Shift focus to the following entry.
The recorded inhibition for N=C(N)c1cccc(C[C@H](NC(=O)c2ccccc2)C(=O)N[C@@H](CCCCN)C(=O)N[C@H](C(N)=O)c2ccccc2)c1 is 94
